molecular target: T1, rhesus monkey TfR ectodomain fused to a mouse IgG1 Fc fragment (rhesus monkey, UniProt I0FKY7 89-760); assay: SPR, kinetic
T1 construct: extracellular domain; not shown: mouse IgG1 Fc fragment
Entries and their kon

{"BINDER": "B8^V29 (VHH) VHH: EVQLVESGGGVVQPGGSLRLSCAASGEIFSINFMRWYRQAPGKQREWVAGFTRDGSTNYPDSAKGRFTISRDNAKNTVYLQIDSLKPEDTAVYYCYMADTWGQGTQVTVSS", "kon": "1.16e+06 M⁻¹ s⁻¹"}
{"BINDER": "VHH B (B8) (VHH) VHH: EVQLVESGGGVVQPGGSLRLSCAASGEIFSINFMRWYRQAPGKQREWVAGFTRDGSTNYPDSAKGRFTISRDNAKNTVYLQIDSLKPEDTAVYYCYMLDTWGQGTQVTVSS", "kon": "1e+06 M⁻¹ s⁻¹"}
